tgt: KRAS WT (Homo sapiens (Human), UniProt P01116+P62937)
Sequence (P01116-2 other isoform, or with tags, fused parts or gaps): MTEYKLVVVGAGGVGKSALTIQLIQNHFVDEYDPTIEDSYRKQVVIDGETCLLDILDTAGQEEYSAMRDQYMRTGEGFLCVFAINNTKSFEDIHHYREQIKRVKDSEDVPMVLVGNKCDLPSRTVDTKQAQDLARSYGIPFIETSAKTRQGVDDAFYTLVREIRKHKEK
Sequence (P62937 whole entry): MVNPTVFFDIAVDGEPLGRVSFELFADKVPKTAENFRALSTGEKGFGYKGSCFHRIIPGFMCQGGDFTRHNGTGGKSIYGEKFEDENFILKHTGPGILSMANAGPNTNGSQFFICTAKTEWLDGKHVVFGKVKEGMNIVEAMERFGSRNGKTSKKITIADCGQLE
assay.notes: Ras-Raf (BRAF RBD) disruption / FRET / MOA assay, KRAS WT
Assay type: biochemical
assay.conditions: read-out: IC50* KRAS WT FRET data
Experimental: The purpose of this biochemical assay is to measure the ability of test compounds to facilitate ternary complex formation between a nucleotide-loaded Ras isoform and cyclophilin A; the resulting ternary complex disrupts binding to a BRAF^RBD construct, inhibiting Ras signaling through a RAF effector. Compound is present in plate wells as a 10-point 3-fold dilution series starting at a final concentration of 30 μM. […]
pIC50: −log10 of the molar value.
endpoint: pIC50

INPUT: Please give measured pIC50 of the following entry: COCc1ncccc1-c1nc2ccc3cc2n1CC(C)(C)COC(=O)[C@@H]1CCCN(N1)C(=O)[C@@H](NC(=O)[C@H](C(C)C)N(C)C(=O)[C@H]1CCN(C(=O)C#CCN2CCOCC2)C1)Cc1cc(O)cc-3c1 [Example A188]
OUTPUT: < 5.00

INPUT: Please give the documented pIC50 of C=CC(=O)N1CC[C@H](C(=O)N(C)[C@H](C(=O)N[C@H]2Cc3cccc(c3)-c3ccc4c(c3)c(c(-c3cccnc3[C@H](C)OC)n4CC)CC(C)(C)COC(=O)[C@@H]3CCCN(N3)C2=O)[C@@H](C)C(F)(F)F)C1 (atropisomer, axis not shown) [Example A640]
OUTPUT: 5.00 to 6.00

INPUT: Return pIC50 (reported value) for this compound: CCn1c(-c2cccnc2[C@H](C)OC)c2c3cc(ccc31)-c1cccc(c1)C[C@H](NC(=O)[C@@H](CO[C@@H]1CCN(C(=O)C#CC(C)(C)N(C)C)C1)C(C)C)C(=O)N1CCC[C@H](N1)C(=O)OCC(C)(C)C2 (atropisomer, axis not shown) [Example A584]
OUTPUT: < 5.00

INPUT: Output measured pIC50 for this item: C=CC(=O)N1CC[C@H](C(=O)N(C)[C@H](C(=O)N[C@H]2Cc3cc(O)cc(c3)-c3ccc4c(c3)c(c(-c3cccnc3CNC)n4CC)CC(C)(C)COC(=O)[C@@H]3CCCN(N3)C2=O)C(C)C)C1 [Example A137]
OUTPUT: 5.00 to 6.00

INPUT: Please report the measured pIC50 for C=CC(=O)N1CC[C@H](C(=O)N(C)[C@H](C(=O)N[C@H]2Cn3cnc(n3)-c3ccc4c(c3)c(c(-c3cccnc3[C@H](C)OC)n4CC)CC(C)(C)COC(=O)[C@@H]3CCCN(N3)C2=O)C(C)C)C1 (atropisomer, axis not shown) [Example A506]
OUTPUT: 5.00 to 6.00

INPUT: Annotate the compound C=CC(=O)N1CCN(C(=O)N(C)[C@H](C(=O)N[C@H]2Cc3nc(cs3)-c3ccc4c(c3)c(c(-c3cccnc3[C@H](C)OC)n4CC)CC(C)(C)COC(=O)[C@@H]3CCCN(N3)C2=O)C(C)C)CC1 (atropisomer, axis not shown) [Example A491] with its measured pIC50.
OUTPUT: 7.00 to 8.00

INPUT: Fill in reported pIC50 for this entry: CCn1c(-c2cccnc2[C@H](C)OC)c2c3cc(ccc31)-c1cccc(c1)C[C@H](NC(=O)[C@H](C(C)C)N1CC[C@]3(CCN(C(=O)C#C[C@H]4COCCN4C4COC4)C3)C1=O)C(=O)N1CCC[C@H](N1)C(=O)OCC(C)(C)C2 (atropisomer, axis not shown) [Example A568]
OUTPUT: < 5.00

INPUT: Supply recorded pIC50 for C=CC(=O)Nc1cnc(C(=O)N(C)[C@H](C(=O)N[C@H]2Cc3cc(O)cc(c3)-c3ccc4c(c3)c(c(-c3cccnc3[C@H](C)OC)n4CC)CC(C)(C)COC(=O)[C@@H]3CCCN(N3)C2=O)C(C)C)s1 (atropisomer, axis not shown) [Example A254] here.
OUTPUT: 6.00 to 7.00
